Numbers sourced from PubChem BioAssay.

A collection of molecules and their measured composite z-score
target: Torsin-1A (Homo sapiens) (UniProt O14656); experiment: TOR1A wild-type binding on microarray – cell lysate, small-molecule microarray, lysate, 635/667 nm, primary screen (AID 1149); conditions: COS7 hTOR1A-WT lysate, 635 nm fluorescence, higher = more signal
Sequence (O14656 whole entry, looked up): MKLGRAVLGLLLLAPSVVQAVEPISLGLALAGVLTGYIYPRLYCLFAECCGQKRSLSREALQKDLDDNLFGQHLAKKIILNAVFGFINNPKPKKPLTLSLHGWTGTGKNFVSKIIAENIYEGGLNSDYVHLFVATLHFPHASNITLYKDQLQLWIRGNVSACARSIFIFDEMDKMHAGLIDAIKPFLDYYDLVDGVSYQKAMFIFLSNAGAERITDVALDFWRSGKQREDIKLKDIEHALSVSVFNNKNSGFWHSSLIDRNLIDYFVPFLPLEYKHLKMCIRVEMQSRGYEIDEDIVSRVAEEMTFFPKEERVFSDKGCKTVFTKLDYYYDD
Please give the numeric answer without any surrounding text.

Consider the reported composite z-score for these molecules:
>  <molecule>
CC(C)c1ccc(NN2C(C(O)c3ccc(C#N)cc3)C=CC3C(=O)N(c4ccccc4)C(=O)C32)cc1 (stereo not given)

>  <composite z-score>
0.0628

$$$$
>  <molecule>
CCOC(=O)C[C@H]1[C@H](OC(=O)c2cc3ccccc3oc2=O)[C@@H](NC(=O)CC(C)C)c2cc(OCCCO)ccc2N1C(=O)c1ccc2ccccc2n1

>  <composite z-score>
-0.0914

$$$$
>  <molecule>
COCC(=C=CC[C@H](O)c1ccccc1OCCO)C[C@H](O)c1ccccn1

>  <composite z-score>
-0.556

$$$$
>  <molecule>
C=C[C@H]1C(C(=O)OCC)=CC[C@@H](c2ccccc2)N1S(=O)(=O)c1ccc(C)cc1

>  <composite z-score>
0.683

$$$$
>  <molecule>
C=C(/C(=C/C[C@H](OC(C)=O)c1ccc(CO)o1)c1cnc2ccccc2c1)C(C)C

>  <composite z-score>
1.27

$$$$
>  <molecule>
CCCCCN1CC=CC23O[C@@H]4/C=C\CCC(C)OC(=O)C4[C@H]2C(=O)N(C(CO)C(C)C)[C@@H]3C1=O (stereo not given in full)

>  <composite z-score>
-1.36

$$$$
>  <molecule>
C[N+](C)(C)CCCC[C@@H]1NC(=O)[C@@H]2C[C@H](C(=O)NCCCCCCN)[C@H](c3cccc(OCCO)c3)N2C1=O

>  <composite z-score>
0.85

$$$$
>  <molecule>
CS(=O)(=O)CCOC(=O)C1=CC(c2ccc(CO)cc2)=CC(C2CC2)N(Cc2sc3ccccc3c2Cl)C=C1C(=O)OCCS(C)(=O)=O (stereo not given)

>  <composite z-score>
1.24

$$$$
>  <molecule>
CCCCC(=C=CC[C@H](O)c1ccc(OCCO)cc1)CCO

>  <composite z-score>
0.678

$$$$
>  <molecule>
CCOC(=O)C[C@H]1[C@H](OC(=O)c2ccc(C(=O)c3ccccc3)cc2)[C@@H](NC(=O)c2ccc3ccccc3n2)c2cc(OCCCO)ccc2N1C(=O)Cc1ccc(OC)cc1

>  <composite z-score>
-0.077

$$$$

Provide value of composite z-score for this record tested with Torsin-1A (Homo sapiens) (UniProt O14656): C=C[C@H](C)[C@H](OC(=O)Nc1ccc(SC)cc1)c1ccc(OCCO)cc1
0.766

Test system Torsin-1A (Homo sapiens) (UniProt O14656); read-out composite z-score; what value for CCCNC(=O)[C@@H]1c2ccccc2C(=O)N(Cc2ccc(OC(F)(F)F)cc2)[C@H]1c1ccc(CO)cc1 ?
0.0008

Quick check: composite z-score on Torsin-1A (Homo sapiens) (UniProt O14656), item [N-]=[N+]=NCc1ccccc1[C@H]1OC(c2ccc(OCCCO)cc2)=N[C@@]1(Cc1ccccc1N=[N+]=[N-])C(=O)NCC(O)CO (stereo not given in full) ?
0.256

Give recorded composite z-score with Torsin-1A (Homo sapiens) (UniProt O14656) for the following molecule: C=CC[C@]1(C(=O)N2CCOCC2)COC(c2ccc(OCCCO)cc2)=N1
1.74

Recall the recorded composite z-score for COc1cc(C(O)C2C=CC3C(=O)N(C)C(=O)C3N2Nc2ccccc2)cc(OC)c1OC (stereo not given) with Torsin-1A (Homo sapiens) (UniProt O14656) and state it.
0.892

Hi! What's the reported composite z-score for [N-]=[N+]=NCc1ccccc1[C@@H]1OC(c2ccc(OCCCO)cc2)=N[C@]1(CCS(=O)(=O)c1ccccc1)C(=O)O on Torsin-1A (Homo sapiens) (UniProt O14656)?
0.134

====

test: budding yeast growth changes without added modifier – OD600, strain BY4716, 24 h, basal condition, primary screen (AID 1173); details: S. cerevisiae BY4716 growth, OD600, 24 h; higher = more signal, called active from +8 up or from −8 down
Use -0.1 as the dividing line for z-score, with the line itself on the True side and lower values as False.

Recorded results for 6 molecules are shown here.
>  <molecule>
[N-]=[N+]=Nc1ccccc1[C@@H]1OC(c2ccc(OCCCO)cc2)=N[C@]1(Cc1ccccc1)C(=O)O

>  <class label>
True

$$$$
>  <molecule>
CCCC[C@@H]1C[C@H]1[C@@H](NC(=O)c1cccs1)c1ccccc1C(F)(F)F

>  <class label>
True

$$$$
>  <molecule>
CCOC(=O)C[C@H]1[C@H](OC(=O)c2cc3ccccc3oc2=O)[C@@H](NC(=O)c2ccc3ccccc3n2)c2cc(OCCCO)ccc2N1C(=O)Cc1ccc(OC)cc1

>  <class label>
False

$$$$
>  <molecule>
COC(=O)C/C=C/C[C@]1(O)C(=O)N(C)c2ccccc21

>  <class label>
False

$$$$
>  <molecule>
N[C@@H](Cc1ccccc1)C(=O)NCc1cn(Cc2ccccc2)nn1

>  <class label>
False

$$$$
>  <molecule>
COCCOC(=O)N1C(=O)[C@@]2(c3cc(C#CC4(O)CCCCCC4)ccc31)[C@H](C(=O)N1CCc3cc(OC)c(OC)cc3C1)[C@H]1C(=O)O[C@H](c3ccccc3)[C@H](c3ccccc3)N1[C@@H]2c1ccc(OCCO)cc1

>  <class label>
True

$$$$

Is the recorded value of z-score equal to or greater than -0.1 for this molecule? CC(C)c1ccc(NN2C(C(O)c3ccc(F)cc3)C=CC3C(=O)N(c4ccccc4)C(=O)C32)cc1 (configuration not stated)
False

====

assay: growth effects on S. cerevisiae YJM789 – YJM789 clinical isolate, OD600, 24 h, basal, primary screen (AID 1089); settings: higher = more signal, called active from +8 up or from −8 down;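 also: growth of clinical yeast isolate S. cerevisiae YJM 789 seeded 1000 cells per well; test concentration not given here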
observable: z-score
Enter a number only.

The cases that follow already have their z-score on record.
>  <structure as smiles>
COc1ccc(C#Cc2ccc3c(c2)[C@]2(C(=O)N3)[C@H](C(=O)O)[C@H]3C(=O)O[C@H](c4ccccc4)[C@H](c4ccccc4)N3[C@@H]2c2ccc(O)cc2)cc1

>  <z-score>
1.26

$$$$
>  <structure as smiles>
O=C1O[C@H](c2ccccc2)[C@H](c2ccccc2)N2[C@H]1[C@@H](C(=O)O)[C@]1(C(=O)Nc3ccc(C#CCCO)cc31)[C@H]2c1ccccc1OCCO

>  <z-score>
0.642

$$$$

Now look at this one.
What does the record list as z-score for C=CC[C@]1(C(=O)N2CCCCC2)N=C(c2ccc(OCCCO)cc2)O[C@H]1c1ccccc1CN=[N+]=[N-] ?
-1.66

====

target: Calmodulin-1 (Homo sapiens); test: small molecules binding calmodulin-1 with EGTA – biochemical, small-molecule microarray, Cy5-labelled CALM1, profiling panel (AID 1111); details: Cy5-CALM1 binding fluorescence, higher = more signal;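 also: labelled calmodulin applied in Tris saline Tween buffer holding calcium plus EGTA and DTT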
observable: composite z-score

>  <compound>
COc1ccc([Si](C)(C)[C@H]2[C@H](CC(=O)N3CCC[C@H]3CO)O[C@@]3(C(=O)N(Cc4ccc(N5CCOC5=O)cc4)c4ccccc43)[C@@H]2C)cc1

>  <composite z-score>
0.655

$$$$
>  <compound>
OCCCC1=CC(c2ccc(CN3CCCC3)cc2)N(Cc2cc3c(cc2Br)OCO3)CC1 (stereo not drawn)

>  <composite z-score>
-0.464

$$$$
>  <compound>
CCOC(=O)C[C@H]1[C@H](OC(=O)Cc2ccc3c(c2)OCO3)[C@@H](NC(=O)c2ccc3ccccc3n2)c2cc(OCCCO)ccc2N1C(=O)c1ccc2ccccc2n1

>  <composite z-score>
0.509

$$$$
>  <compound>
COc1ccc(C(=O)Nc2ccc(CN3C(=O)[C@]4(O[C@H](CC(=O)N5Cc6ccccc6C[C@H]5CO)[C@@H]([Si](C)(C)c5ccc(OC)cc5)[C@@H]4C)c4ccccc43)cc2)cc1

>  <composite z-score>
0.301

$$$$
>  <compound>
CCCN1C(=O)[C@@]2(Cc3ccccc31)N=C(c1ccc(OCCCO)cc1)O[C@H]2c1ccccc1

>  <composite z-score>
0.354

$$$$
>  <compound>
COCCCNC(=O)[C@@]1(CCC(=O)OC(C)(C)C)N=C(c2ccc(OCCCO)cc2)O[C@H]1c1ccccc1N=[N+]=[N-]

>  <composite z-score>
2.01

$$$$
>  <compound>
C=C[C@H](C)[C@H](OC(=O)Nc1ccc(SC)cc1)c1ccc(OCCO)cc1

>  <composite z-score>
0.272

$$$$

Give composite z-score (Calmodulin-1 (Homo sapiens)) of the following compound: O=C1CS(=O)(=O)C(c2cccc([N+](=O)[O-])c2)N1c1ccccc1 (stereo not drawn)
0.0568

====

Each entry below carries its recorded composite z-score.
target: Torsin-1A (Homo sapiens); experiment: TOR1A wild-type binding on microarray – cell lysate, small-molecule microarray, lysate, 635/667 nm, primary screen (AID 1149); details: COS7 hTOR1A-WT lysate, 635 nm fluorescence, higher = more signal
Answer with a number only.

Observe how each entry below is paired with its result.
>  <molecule>
COC(=O)C1=CC(CCCO)=CC(c2cccs2)N(C)C=C1C(=O)OC (stereo not drawn)

>  <measured>
-0.186

$$$$
>  <molecule>
COc1ccc(C(=O)Nc2ccc(CN3C(=O)[C@]4(O[C@H](CC(=O)N5Cc6ccccc6C[C@H]5CO)[C@@H]([Si](C)(C)c5ccc(OC)cc5)[C@@H]4C)c4ccccc43)cc2)cc1

>  <measured>
0.851

$$$$
>  <molecule>
C=C(/C(=C/C[C@H](OC(=O)c1ccncc1)c1ccc(CO)o1)c1cnc2ccccc2c1)C(C)C

>  <measured>
0.353

$$$$

Form field: reported composite z-score of O=C1[C@H]2C=C(I)[C@H](C[C@@H]2OCCOCCO)[C@@]12CO2
0.48

Entry under review: [N-]=[N+]=Nc1ccccc1C[C@]1(C(=O)NCC(O)CO)COC(c2ccc(OCCCO)cc2)=N1 (stereo partly drawn) . Reported composite z-score?
1.3

Report composite z-score for CC1CC/C=C\[C@H]2OC34C=CCN(c5ccc(Cl)cc5)C(=O)[C@H]3N(C(C)CO)C(=O)[C@]4(C)C2C(=O)O1 (stereo partly drawn) please.
-0.979

Look at this molecule and give its reported composite z-score. CCOC(=O)C1=C[C@@H](c2ccccc2)N(S(=O)(=O)c2ccc(C)cc2)[C@H]1c1ccc(OC)cc1
0.162

Param item = CCC#CCN(Cc1ccccc1Br)[C@H](/C=C/C1CC1)[C@@H](O)Cc1ccccc1 ; retrieve measured composite z-score.
-0.806
